SYSTEM: hBuChE (Homo sapiens)
Sequence (P06276 29-602): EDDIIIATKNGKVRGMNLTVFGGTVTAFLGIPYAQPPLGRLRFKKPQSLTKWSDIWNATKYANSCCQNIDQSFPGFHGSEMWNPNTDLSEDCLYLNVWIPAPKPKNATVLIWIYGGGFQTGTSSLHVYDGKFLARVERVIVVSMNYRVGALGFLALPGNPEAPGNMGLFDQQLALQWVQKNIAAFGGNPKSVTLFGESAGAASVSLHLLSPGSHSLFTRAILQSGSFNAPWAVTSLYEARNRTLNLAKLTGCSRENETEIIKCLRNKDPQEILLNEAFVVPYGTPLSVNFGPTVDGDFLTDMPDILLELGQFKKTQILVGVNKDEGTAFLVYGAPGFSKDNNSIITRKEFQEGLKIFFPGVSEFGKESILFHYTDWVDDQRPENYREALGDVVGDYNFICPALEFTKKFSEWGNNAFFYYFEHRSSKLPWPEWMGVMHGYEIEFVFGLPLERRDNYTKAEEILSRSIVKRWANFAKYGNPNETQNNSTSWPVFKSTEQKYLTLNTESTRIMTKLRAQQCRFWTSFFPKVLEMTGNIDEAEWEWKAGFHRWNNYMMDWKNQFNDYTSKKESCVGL
ASSAY PROCEDURE: biochemical
Format: biochemical
MEASUREMENT PARAMETERS: mean ± SEM of three independent measurements, each in triplicate; read-out: hBuChE IC50
MEASURE: pIC50
One number for each entry, as −log10 of the molar value.

Before answering, review these 2 worked examples.
CCCC(=O)OC1CN2Cc3cc4c(cc3C13C=CC(OC)CC23)OCO4 (stereo not drawn) ... 3.85
COC1C=CC23c4cc5c(cc4CN(CC2OC(=O)c2ccccc2)C3C1)OCO5 (stereo not drawn) ... 5.24

We next turn to a different compound, shown below.
Measured pIC50, COC1C=CC23c4cc5c(cc4CN(CC2OC(=O)c2ccccc2C)C3C1)OCO5 (stereo not drawn) : 5.18
